experimental parameters: in ethanol, 288.15 K
endpoint: solubility (mole fraction)

[ask] Please give measured solubility (mole fraction) of the following entry: `COc1ccc2cccc(CCNC(C)=O)c2c1`
[reply] 0.0235

* * *

experimental parameters: in n-butanol, 283.15 K
endpoint: solubility (mole fraction)
Lab note: jot down the number only; don't add units.

[ask] Please give measured solubility (mole fraction) of the following entry: `COc1ccc2cccc(CCNC(C)=O)c2c1`
[reply] 0.0147

* * *

experimental parameters: in ethanol, 278.15 K
endpoint: solubility (mole fraction)
Lab note: jot down the number only; don't add units.

[ask] Please give measured solubility (mole fraction) of the following entry: `COc1ccc2cccc(CCNC(C)=O)c2c1`
[reply] 0.0109

* * *

experimental parameters: in n-propyl acetate, 283.15 K
endpoint: solubility (mole fraction)
Lab note: jot down the number only; don't add units.

[ask] Please give measured solubility (mole fraction) of the following entry: `COc1ccc2cccc(CCNC(C)=O)c2c1`
[reply] 0.00625

* * *

experimental parameters: in ethanol, 293.15 K
endpoint: solubility (mole fraction)
Lab note: jot down the number only; don't add units.

[ask] Please give measured solubility (mole fraction) of the following entry: `COc1ccc2cccc(CCNC(C)=O)c2c1`
[reply] 0.0319

* * *

experimental parameters: in ethyl acetate, 278.15 K
endpoint: solubility (mole fraction)

[ask] Please give measured solubility (mole fraction) of the following entry: `COc1ccc2cccc(CCNC(C)=O)c2c1`
[reply] 0.00662

* * *

experimental parameters: in isopropanol, 278.15 K
endpoint: solubility (mole fraction)

[ask] Please give measured solubility (mole fraction) of the following entry: `COc1ccc2cccc(CCNC(C)=O)c2c1`
[reply] 0.00499

* * *

experimental parameters: in n-butyl acetate, 278.15 K
endpoint: solubility (mole fraction)

[ask] Please give measured solubility (mole fraction) of the following entry: `COc1ccc2cccc(CCNC(C)=O)c2c1`
[reply] 0.00323

* * *

experimental parameters: in isopropanol, 303.15 K
endpoint: solubility (mole fraction)
Lab note: jot down the number only; don't add units.

[ask] Please give measured solubility (mole fraction) of the following entry: `COc1ccc2cccc(CCNC(C)=O)c2c1`
[reply] 0.039

* * *

experimental parameters: in ethanol, 298.15 K
endpoint: solubility (mole fraction)
Lab note: jot down the number only; don't add units.

[ask] Please give measured solubility (mole fraction) of the following entry: `COc1ccc2cccc(CCNC(C)=O)c2c1`
[reply] 0.0425

* * *

experimental parameters: in isopropanol, 288.15 K
endpoint: solubility (mole fraction)
Lab note: jot down the number only; don't add units.

[ask] Please give measured solubility (mole fraction) of the following entry: `COc1ccc2cccc(CCNC(C)=O)c2c1`
[reply] 0.0186

* * *

experimental parameters: in water, 278.15 K
endpoint: solubility (mole fraction)
Lab note: jot down the number only; don't add units.

[ask] Please give measured solubility (mole fraction) of the following entry: `COc1ccc2cccc(CCNC(C)=O)c2c1`
[reply] 1.8e-05

* * *

experimental parameters: in n-butyl acetate, 308.15 K
endpoint: solubility (mole fraction)

[ask] Please give measured solubility (mole fraction) of the following entry: `COc1ccc2cccc(CCNC(C)=O)c2c1`
[reply] 0.0261

* * *

experimental parameters: in n-pentyl acetate, 298.15 K
endpoint: solubility (mole fraction)
Lab note: jot down the number only; don't add units.

[ask] Please give measured solubility (mole fraction) of the following entry: `COc1ccc2cccc(CCNC(C)=O)c2c1`
[reply] 0.00884
